Where these numbers come from: patent US20250340591A1

EXPERIMENTAL TARGET: T1, GPR39 (G protein coupled receptor 39) (UniProt O43194 1-453, limits assumed)
T1 sequence (looked up): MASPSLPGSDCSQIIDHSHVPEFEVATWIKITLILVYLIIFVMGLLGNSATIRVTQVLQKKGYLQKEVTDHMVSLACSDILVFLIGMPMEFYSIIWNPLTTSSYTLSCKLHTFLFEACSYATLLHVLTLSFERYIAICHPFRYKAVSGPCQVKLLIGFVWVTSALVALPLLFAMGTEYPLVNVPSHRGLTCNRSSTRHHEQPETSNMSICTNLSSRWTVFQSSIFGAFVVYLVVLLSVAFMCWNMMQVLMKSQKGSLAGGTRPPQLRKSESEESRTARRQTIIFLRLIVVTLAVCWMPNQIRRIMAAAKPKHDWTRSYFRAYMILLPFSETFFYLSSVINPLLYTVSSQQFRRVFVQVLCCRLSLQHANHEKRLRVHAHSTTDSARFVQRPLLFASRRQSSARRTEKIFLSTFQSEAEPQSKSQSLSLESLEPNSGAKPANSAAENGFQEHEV
ASSAY DETAILS: cell-based or functional assay
Square brackets hold non-standard residues; d marks the D form. Ends that are not written are not given here. * marks the point of attachment. 2‑phenyl = 2-phenyl substituent on the histidine imidazole (2-phenyl-1H-imidazol-4-yl), c1ccc(*)cc1; Tyr(3,5-(NO2)2) = N[C@@H](Cc1cc([N+](=O)[O-])c(O)c([N+](=O)[O-])c1)C(=O)O; Biotin = O=C1N[C@H]2[C@H](CS[C@H]2CCCCC(=O)*)N1; 1‑(4-tert-butyl)phenyl = CC(C)(C)c1ccc(*)cc1; Bip = N[C@@H](Cc1ccc(-c2ccccc2)cc1)C(=O)O; dPhe(4-Cl) = N[C@H](Cc1ccc(Cl)cc1)C(=O)O; dPhe(4-Me) = Cc1ccc(C[C@@H](N)C(=O)O)cc1; Trt = c1ccc(C(c2ccccc2)(c2ccccc2)*)cc1; Benzhydryl = c1ccc(C(c2ccccc2)*)cc1; Octanoyl = CCCCCCCC(=O)*; SO3H = O=S(=O)(O)*
READOUT KIND: EC50; SRE-luciferase reporter

H(Benzhydryl)K(Octanoyl)[dPhe(4-Me)][Tyr(3,5-(NO2)2)] [HKFY-69] :: 0.015 µM
His(Benzhydryl)-Lys(Octanoyl)-OH [HKFY-79] :: 0.97 µM
H(Trt)K(Octanoyl)FS [HKFY-50] :: 0.7 µM
H(Benzhydryl)K(Octanoyl)[dPhe(4-Me)]Y(SO3H) [HKFY-35] :: 0.28 µM
Biotin-H(Trt)K(Octanoyl)[Bip]Y [HKFY-45] :: 0.14 µM
H(1‑(4-tert-butyl)phenyl)K(Octanoyl)[dPhe(4-Me)]Y-OH [HKFY-61] :: 0.02 µM
H(4‑methylbenzhydryl)K(Octanoyl)FY [HKFY-22] :: 59.8 µM
H(Trt)[dK](Octanoyl)[dPhe(4-Cl)]Y [HKFY-16] :: 0.24 µM

Task: EC50; SRE-luciferase reporter lookup needed for H(2‑phenyl)K(Octanoyl)[dPhe(4-Me)]Y-OH [HKFY-57] , thanks.
Output: 0.26 µM

Task: EC50; SRE-luciferase reporter for H(Fm)K(Octanoyl)FY [HKFY-18] ?
Output: 2.29 µM
